Measured Activity, fold drop compared to relaxin values are reported for all entries that follow.
Target: T1, LGR7 (UniProt Q9HBX9 1-757, limits assumed)
T1 sequence (looked up): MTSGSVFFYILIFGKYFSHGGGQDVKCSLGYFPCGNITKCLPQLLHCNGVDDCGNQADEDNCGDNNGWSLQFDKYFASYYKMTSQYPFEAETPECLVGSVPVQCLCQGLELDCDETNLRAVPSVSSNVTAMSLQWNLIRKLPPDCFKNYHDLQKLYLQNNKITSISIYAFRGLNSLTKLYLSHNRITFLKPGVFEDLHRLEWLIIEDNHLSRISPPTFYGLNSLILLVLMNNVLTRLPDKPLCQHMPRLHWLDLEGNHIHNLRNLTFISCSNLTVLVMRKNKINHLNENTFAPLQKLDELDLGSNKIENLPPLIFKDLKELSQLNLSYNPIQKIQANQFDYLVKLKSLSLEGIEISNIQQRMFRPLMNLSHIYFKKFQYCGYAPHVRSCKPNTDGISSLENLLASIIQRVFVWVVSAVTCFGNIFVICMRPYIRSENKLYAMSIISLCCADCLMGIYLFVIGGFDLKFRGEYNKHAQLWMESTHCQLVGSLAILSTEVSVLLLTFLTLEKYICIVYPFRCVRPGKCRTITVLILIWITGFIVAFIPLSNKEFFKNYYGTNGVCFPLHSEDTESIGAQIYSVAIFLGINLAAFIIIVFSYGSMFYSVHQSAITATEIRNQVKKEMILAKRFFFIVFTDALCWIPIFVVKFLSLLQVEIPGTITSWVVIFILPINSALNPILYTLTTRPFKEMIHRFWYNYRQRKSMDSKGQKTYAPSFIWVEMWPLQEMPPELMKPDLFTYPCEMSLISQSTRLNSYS
Experiment: cell-based or functional assay
Where no end group is shown, it is not given here. The star is where a group is joined. FA1 = tetradecanamide (myristoyl) lipid attached through an ethoxy-ethoxy-ethyl acetamide linker, made from Br-FA1, N-(2-(2-(2-(2-bromoacetamido)ethoxy)ethoxy)ethyl)tetradecanamide, CCCCCCCCCCCCCC(=O)NCCOCCOCCNC(=O)C*; FA2 = not defined here

binder	Activity, fold drop compared to relaxin / fold
Relaxin-B-D1A, A-R18C-FA2 (ligand, ends and bridges not checked; also: A and B chains disulfide-linked, pairing not given here) chain 1: ASWMEEVIKLCGRELVRAQIAICGMSTWS chain 2: QLYSALANKCCHVGCTKC(FA2)SLARFC	30
Relaxin-B-D1AM25KM4K, A-Q1AH12K, B-S29C-FA2 (ligand, ends and bridges not checked; also: A and B chains disulfide-linked, pairing not given here) chain 1: ASWKEEVIKLCGRELVRAQIAICGKSTWC(FA2) chain 2: ALYSALANKCCKVGCTKRSLARFC	150
Pro-Relaxin-B-D1A (ligand) MIEEGRDSWMEEVIKLCGRELVRAQIAICGMSTWSKRKPTGYGSRKKRQLYSALANKCCHVGCTKRSLARFC	10
Relaxin-B-D1AM25KM4K, A-Q1AH12K, B-S29C-FA1 (ligand, ends and bridges not checked; also: A and B chains disulfide-linked, pairing not given here) chain 1: ASWKEEVIKLCGRELVRAQIAICGKSTWC(FA1) chain 2: ALYSALANKCCKVGCTKRSLARFC	25
